Measured values drawn from patent US20230141603A1 for this set.

target: h-GABAA α1β3γ2 (Homo sapiens, UniProt P14867+P18507); construct: expressed in transfected cells; host or cells: HEK293F cells, membranes; assay: Radioligand binding assay, [3H]Flumazenil competition, HEK293F membranes; details: Table 1; Ki α1β3γ2 (nM)/Ki α2β2γ1 (nM)

Compound: Fc1cccnc1C1=NCc2nnc(C3CC3)n2-c2ccc(Cl)c(Cl)c21 [Example 65]
Assayed target: h-GABAA α1β3γ2 (Homo sapiens, UniProt P14867+P18507)
γ2/γ1 Selectivity Ratio: 24.0

Compound: Fc1cccnc1C1=NCc2nncn2-c2ccc(Cl)c(Cl)c21 [Example 60]
Assayed target: h-GABAA α1β3γ2 (Homo sapiens, UniProt P14867+P18507)
γ2/γ1 Selectivity Ratio: 28.6

Compound: Fc1cccc(F)c1C1=NCc2nncn2-c2ccc(Br)c(Cl)c21 [Example 7]
Assayed target: h-GABAA α1β3γ2 (Homo sapiens, UniProt P14867+P18507)
γ2/γ1 Selectivity Ratio: 24.2

Compound: Fc1ccccc1C1=NCc2nnc(-c3cccnn3)n2-c2ccc(Cl)c(Cl)c21 [Example 10]
Assayed target: h-GABAA α1β3γ2 (Homo sapiens, UniProt P14867+P18507)
γ2/γ1 Selectivity Ratio: 67.7

Compound: Fc1cccnc1C1=NCc2nnc(-c3cccnn3)n2-c2ccc(Cl)c(Cl)c21 [Example 54]
Assayed target: h-GABAA α1β3γ2 (Homo sapiens, UniProt P14867+P18507)
γ2/γ1 Selectivity Ratio: 68.7

Compound: Fc1cccnc1C1=NCc2nnc(-c3ccncn3)n2-c2ccc(C(F)(F)F)c(Cl)c21 [Example 69]
Assayed target: h-GABAA α1β3γ2 (Homo sapiens, UniProt P14867+P18507)
γ2/γ1 Selectivity Ratio: 166.3

Compound: COc1nnc2n1-c1ccc(Cl)c(Cl)c1C(c1c(F)cccc1F)=NC2 [Example 90]
Assayed target: h-GABAA α1β3γ2 (Homo sapiens, UniProt P14867+P18507)
γ2/γ1 Selectivity Ratio: 52.8

Compound: O=c1[nH]nc2n1-c1ccc(Br)c(Cl)c1C(c1ccccc1F)=NC2 [Example 26]
Assayed target: h-GABAA α1β3γ2 (Homo sapiens, UniProt P14867+P18507)
γ2/γ1 Selectivity Ratio: 22.1

Compound: O=c1[nH]nc2n1-c1ccc(Cl)c(Cl)c1C(c1ncccc1F)=NC2 [Example 59]
Assayed target: h-GABAA α1β3γ2 (Homo sapiens, UniProt P14867+P18507)
γ2/γ1 Selectivity Ratio: 21.9

Compound: Fc1cccc(F)c1C1=NCc2nncn2-c2ccc(Cl)c(Cl)c21 [Example 15]
Assayed target: h-GABAA α1β3γ2 (Homo sapiens, UniProt P14867+P18507)
γ2/γ1 Selectivity Ratio: 28.7

Compound: Fc1cccnc1C1=NCc2nnc(C3CC3)n2-c2ccc(Br)c(Cl)c21 [Example 77]
Assayed target: h-GABAA α1β3γ2 (Homo sapiens, UniProt P14867+P18507)
γ2/γ1 Selectivity Ratio: 36.6

Compound: Fc1cccc(F)c1C1=NCc2nnc(-c3cccnn3)n2-c2ccc(C(F)(F)F)c(Cl)c21 [Example 38]
Assayed target: h-GABAA α1β3γ2 (Homo sapiens, UniProt P14867+P18507)
γ2/γ1 Selectivity Ratio: 113.4

Compound: Fc1cccc(F)c1C1=NCc2nnc(-c3cccnn3)n2-c2ccc(Br)c(Cl)c21 [Example 104]
Assayed target: h-GABAA α1β3γ2 (Homo sapiens, UniProt P14867+P18507)
γ2/γ1 Selectivity Ratio: 38.1

Compound: Clc1cccnc1C1=NCc2nnc(-c3ccncn3)n2-c2ccc(Br)c(Cl)c21 [Example 44]
Assayed target: h-GABAA α1β3γ2 (Homo sapiens, UniProt P14867+P18507)
γ2/γ1 Selectivity Ratio: 28.6

Compound: Cc1nnc2n1-c1ccc(C(F)(F)F)c(Cl)c1C(c1c(F)cccc1F)=NC2 [Example 40]
Assayed target: h-GABAA α1β3γ2 (Homo sapiens, UniProt P14867+P18507)
γ2/γ1 Selectivity Ratio: 37.5

Compound: COc1ccc2c(c1Cl)C(c1c(F)cccc1F)=NCc1nnc(C3CC3)n1-2 [Example 79]
Assayed target: h-GABAA α1β3γ2 (Homo sapiens, UniProt P14867+P18507)
γ2/γ1 Selectivity Ratio: 17.8

Compound: Cl.NCc1nnc2n1-c1ccc(Br)c(Cl)c1C(c1c(F)cccc1F)=NC2 [Example 36]
Assayed target: h-GABAA α1β3γ2 (Homo sapiens, UniProt P14867+P18507)
γ2/γ1 Selectivity Ratio: 21.2

Compound: Cc1nnc2n1-c1ccc(I)c(Cl)c1C(c1c(F)cccc1F)=NC2 [Example 41]
Assayed target: h-GABAA α1β3γ2 (Homo sapiens, UniProt P14867+P18507)
γ2/γ1 Selectivity Ratio: 21.9
